# measured-on: recombinant human Tdp1 (Homo sapiens (Human))
# method-notes: Gel-based assay measuring the inhibition of recombinant Tdp1
# Type: biochemical
# test-parameters: read-out: Tdp1 (semiquantitative IC50 scale)
pIC50: −log10 of the molar value.
readout-name: pIC50

What pIC50 value was documented for this compound, COc1ccc2c(c1)-c1c(c3ccc([N+](=O)[O-])cc3c(=O)n1CCCN)C2=O.Cl [Compound 51 of (B), Hydrochloride] ?
4.43 to 4.92

###

The following compounds are shown together with reported GI50 values.
# System: SF-539
# method-notes: NCI screen cytotoxicity, CNS SF-539
# test-parameters: read-out: Cytotoxicity (GI50 in μM) CNS SF-539; 50% growth inhibition
Structures can show the parent of a compound that is named as a salt.
Give the value, in units of µM, as a plain number.

In the examples that follow, each entry is paired with its recorded GI50.
CCOC(=O)CNc1ccc2c3c(n(CCCN)c(=O)c2c1)-c1ccccc1C3=O [Compound 40 of (B), Hydrochloride]
8.91
NCCCn1c2c(c3ccc(N)cc3c1=O)C(=O)c1ccccc1-2 [Compound 62 of (B)]
0.34
Cl.NCCCn1c2c(c3ccc(NCC(=O)O)cc3c1=O)C(=O)c1ccccc1-2 [Compound 43 of (B), Hydrochloride]
1.79

Please find the next compound below.
Request: GI50, test system SF-539, entry COc1ccc2c(c1)-c1c(c3ccc([N+](=O)[O-])cc3c(=O)n1CCCN)C2=O.Cl [Compound 51 of (B), Hydrochloride]
0.61

###

# measured-on: human recombinant Top1 (Homo sapiens (Human), UniProt P11387)
# Sequence (P11387 whole entry): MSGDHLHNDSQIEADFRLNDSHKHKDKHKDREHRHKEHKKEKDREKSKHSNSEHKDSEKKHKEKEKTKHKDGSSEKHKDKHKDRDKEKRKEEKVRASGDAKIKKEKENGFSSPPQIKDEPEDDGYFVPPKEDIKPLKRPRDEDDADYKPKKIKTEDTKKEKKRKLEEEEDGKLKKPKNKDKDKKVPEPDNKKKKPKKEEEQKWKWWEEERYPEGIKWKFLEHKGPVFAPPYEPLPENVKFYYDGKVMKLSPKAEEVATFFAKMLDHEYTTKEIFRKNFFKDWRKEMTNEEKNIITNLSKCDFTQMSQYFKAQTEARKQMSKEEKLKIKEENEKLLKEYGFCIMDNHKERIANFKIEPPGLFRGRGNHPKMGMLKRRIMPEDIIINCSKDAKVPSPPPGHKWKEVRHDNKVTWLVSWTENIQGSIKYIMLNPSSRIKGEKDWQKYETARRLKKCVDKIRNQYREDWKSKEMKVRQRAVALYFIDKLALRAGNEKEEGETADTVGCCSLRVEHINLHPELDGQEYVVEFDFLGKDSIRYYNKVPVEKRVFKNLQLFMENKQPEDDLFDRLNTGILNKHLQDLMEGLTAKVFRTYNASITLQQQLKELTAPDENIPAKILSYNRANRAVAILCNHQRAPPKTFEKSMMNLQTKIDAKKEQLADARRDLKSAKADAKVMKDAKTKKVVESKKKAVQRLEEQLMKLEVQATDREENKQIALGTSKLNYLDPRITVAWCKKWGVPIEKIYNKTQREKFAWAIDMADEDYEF
# method-notes: Topoisomerase I-mediated DNA cleavage reactions
# test-parameters: semiquantitative scale relative to 1 μM camptothecin (90) or MJ-III-65 (91)
readout-name: Top1, compound-induced DNA cleavage due to Top1 inhibition

In the examples that follow, each entry is paired with its recorded Top1, compound-induced DNA cleavage due to Top1 inhibition.
Cl.NCCCn1c2c(c3ccc(NC(=O)CCCC(=O)O)cc3c1=O)C(=O)c1ccccc1-2
0
CS(=O)(=O)NCCCCCCCn1c2c(c3ccccc3c1=O)C(=O)c1ccccc1-2
+++
COC(=O)CCCC(=O)Nc1ccc2c3c(n(CCCN)c(=O)c2c1)-c1ccccc1C3=O
0
CC(C)(C)OC(=O)NCCCn1c2c(c3ccc(NC(=O)CCCCC(=O)O)cc3c1=O)C(=O)c1ccccc1-2
(+)

What Top1, compound-induced DNA cleavage due to Top1 inhibition value was documented for this molecule, `CS(=O)(=O)NCCCCCCCCCCCn1c2c(c3ccccc3c1=O)C(=O)c1ccccc1-2` ?
++

What Top1, compound-induced DNA cleavage due to Top1 inhibition value was documented for this molecule, `COc1ccc2c(c1)-c1c(c3ccc([N+](=O)[O-])cc3c(=O)n1CCCN=[N+]=[N-])C2=O` ?
+

What Top1, compound-induced DNA cleavage due to Top1 inhibition value was documented for this molecule, `N#Cc1ccc2c3c(n(CCCN4CCOCC4)c(=O)c2c1)-c1ccccc1C3=O` ?
++

###

# System: HOP-62
# method-notes: NCI screen cytotoxicity, lung HOP-62
# test-parameters: read-out: Cytotoxicity (GI50 in μM) lung HOP-62; 50% growth inhibition
Counter-ions that a name gives are not always drawn.
The following molecules are shown together with reported GI50 values.

In the examples that follow, each entry is paired with its recorded GI50.
COc1ccc2c(c1)-c1c(c3ccc([N+](=O)[O-])cc3c(=O)n1CCCn1ccnc1)C2=O
< 0.01 µM
COc1ccc2c(c1)C(=O)c1c-2n(CCCN)c(=O)c2cc([N+](=O)[O-])ccc12
< 0.01 µM
Cl.NCCCn1c2c(c3ccc(NCC(=O)O)cc3c1=O)C(=O)c1ccccc1-2 [Compound 43 of (B), Hydrochloride]
0.65 µM
CCOC(=O)CNc1ccc2c3c(n(CCCN)c(=O)c2c1)-c1ccccc1C3=O [Compound 40 of (B), Hydrochloride]
0.93 µM

What GI50 value was documented for this molecule, `NCCCn1c2c(c3ccc(N)cc3c1=O)C(=O)c1ccccc1-2` ?
0.27 µM

###

# measured-on: recombinant human Tdp1 (Homo sapiens (Human), UniProt Q9NUW8)
# Sequence (Q9NUW8 whole entry): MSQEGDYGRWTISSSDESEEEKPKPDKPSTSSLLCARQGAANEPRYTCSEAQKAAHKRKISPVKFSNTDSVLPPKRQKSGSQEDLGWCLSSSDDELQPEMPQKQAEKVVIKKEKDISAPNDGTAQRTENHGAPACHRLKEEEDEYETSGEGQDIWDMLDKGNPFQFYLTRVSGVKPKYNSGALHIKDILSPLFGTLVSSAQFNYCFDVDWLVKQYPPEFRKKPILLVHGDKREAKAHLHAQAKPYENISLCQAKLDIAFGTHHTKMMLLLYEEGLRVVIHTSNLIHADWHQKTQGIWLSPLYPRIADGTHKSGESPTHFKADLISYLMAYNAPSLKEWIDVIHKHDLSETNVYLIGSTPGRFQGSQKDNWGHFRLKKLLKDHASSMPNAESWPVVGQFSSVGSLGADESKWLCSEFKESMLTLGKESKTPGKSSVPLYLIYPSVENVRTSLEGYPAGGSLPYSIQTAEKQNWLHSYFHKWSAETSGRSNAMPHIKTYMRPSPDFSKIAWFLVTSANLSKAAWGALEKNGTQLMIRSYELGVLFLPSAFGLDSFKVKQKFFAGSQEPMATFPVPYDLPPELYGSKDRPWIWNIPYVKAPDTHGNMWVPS
# method-notes: Gel-based assay measuring the inhibition of recombinant Tdp1
# Assay type: biochemical
# test-parameters: recombinant Tdp1
readout-name: Tdp1 inhibitory activity (in words)

COc1ccc2c(c1)-c1c(c3ccc([N+](=O)[O-])cc3c(=O)n1CCCBr)C2=O [Compound 49 of (B)]
very weak or inactive
COc1ccc2c(c1)-c1c(c3ccc([N+](=O)[O-])cc3c(=O)n1CCCN=[N+]=[N-])C2=O [Compound 50 of (B)]
very weak or inactive
COc1ccc2c(c1)-c1c(c3ccc([N+](=O)[O-])cc3c(=O)n1CCCN1CCOCC1)C2=O [Compound 53 of (B)]
very weak or inactive

###

The following compounds are shown together with reported GI50 values.
# Tested on: HCT-116
# method-notes: NCI screen cytotoxicity, colon HCT-116
# test-parameters: read-out: Cytotoxicity (GI50 in μM) colon HCT-116; 50% growth inhibition

In the examples that follow, each entry is paired with its recorded GI50.
COc1ccc2c(c1)-c1c(c3ccc([N+](=O)[O-])cc3c(=O)n1CCCn1ccnc1)C2=O [Compound 52 of (B)]
< 0.01 µM
COc1ccc2c(c1)C(=O)c1c-2n(CCCN)c(=O)c2cc([N+](=O)[O-])ccc12 [Compound 54 of (B)]
< 0.01 µM

Please find the next compound below.
What GI50 value was documented for this compound, Cl.NCCCn1c2c(c3ccc(NCC(=O)O)cc3c1=O)C(=O)c1ccccc1-2 [Compound 43 of (B), Hydrochloride] ?
0.33 µM

###

# Test system: DU-145
# method-notes: NCI screen cytotoxicity, prostate DU-145
# test-parameters: read-out: Cytotoxicity (GI50 in μM) prostate DU-145; 50% growth inhibition
Where a name gives a salt, the structure may show the parent alone.
readout-name: GI50 (µM)
Give the value, in units of µM, as a plain number.

CCOC(=O)CNc1ccc2c3c(n(CCCN)c(=O)c2c1)-c1ccccc1C3=O [Compound 40 of (B), Hydrochloride]
1.68
COc1ccc2c(c1)-c1c(c3ccc([N+](=O)[O-])cc3c(=O)n1CCCN)C2=O.Cl [Compound 51 of (B), Hydrochloride]
0.18
NCCCn1c2c(c3ccc(N)cc3c1=O)C(=O)c1ccccc1-2
0.12
O=C1c2ccccc2-c2c1c1ccc([N+](=O)[O-])cc1c(=O)n2CCCO
0.43

What GI50 value was documented for this molecule, Cl.NCCCn1c2c(c3ccc(NCC(=O)O)cc3c1=O)C(=O)c1ccccc1-2 [Compound 43 of (B), Hydrochloride] ?
1.51

###

# Tested on: HCT-116
# method-notes: NCI screen cytotoxicity, colon HCT-116
# test-parameters: read-out: Cytotoxicity (GI50 in μM) colon HCT-116; 50% growth inhibition
Structures can show the parent of a compound that is named as a salt.
readout-name: GI50 (µM)
Give the value, in units of µM, as a plain number.

In the examples that follow, each entry is paired with its recorded GI50.
O=C1c2ccccc2-c2c1c1ccc([N+](=O)[O-])cc1c(=O)n2CCCO [Compound 63 of (B)]
0.19
NCCCn1c2c(c3ccc(N)cc3c1=O)C(=O)c1ccccc1-2 [Compound 62 of (B)]
0.18
COc1ccc2c(c1)-c1c(c3ccc([N+](=O)[O-])cc3c(=O)n1CCCN)C2=O.Cl [Compound 51 of (B), Hydrochloride]
0.06

What GI50 value was documented for this molecule, CCOC(=O)CNc1ccc2c3c(n(CCCN)c(=O)c2c1)-c1ccccc1C3=O [Compound 40 of (B), Hydrochloride] ?
0.44

###

The following molecules are shown together with reported GI50 values.
# Test system: UACC-62
# method-notes: NCI screen cytotoxicity, melanoma UACC-62
# test-parameters: read-out: Cytotoxicity (GI50 in μM) melanoma UACC-62; 50% growth inhibition
Where a name gives a salt, the structure may show the parent alone.
Give the value, in units of µM, as a plain number.

In the examples that follow, each entry is paired with its recorded GI50.
NCCCn1c2c(c3ccc(N)cc3c1=O)C(=O)c1ccccc1-2
0.3
CCOC(=O)CNc1ccc2c3c(n(CCCN)c(=O)c2c1)-c1ccccc1C3=O [Compound 40 of (B), Hydrochloride]
2.25
Cl.NCCCn1c2c(c3ccc(NCC(=O)O)cc3c1=O)C(=O)c1ccccc1-2 [Compound 43 of (B), Hydrochloride]
0.72

Please find the next molecule below.
Request: GI50, test system UACC-62, entry `O=C1c2ccccc2-c2c1c1ccc([N+](=O)[O-])cc1c(=O)n2CCCO`
0.31

###

# Test system: MDA-MB-435
# method-notes: NCI screen cytotoxicity, breast MDA-MB-435
# test-parameters: read-out: Cytotoxicity (GI50 in μM) breast MDA-MB-435; 50% growth inhibition
Structures can show the parent of a compound that is named as a salt.
The following compounds are shown together with reported GI50 values.
Reply with the number, then its unit.

In the examples that follow, each entry is paired with its recorded GI50.
COc1ccc2c(c1)-c1c(c3ccc([N+](=O)[O-])cc3c(=O)n1CCCN)C2=O.Cl [Compound 51 of (B), Hydrochloride]
0.58 µM
COc1ccc2c(c1)-c1c(c3ccc([N+](=O)[O-])cc3c(=O)n1CCCn1ccnc1)C2=O [Compound 52 of (B)]
0.03 µM

Request: GI50, test system MDA-MB-435, entry NCCCn1c2c(c3ccc(N)cc3c1=O)C(=O)c1ccccc1-2 [Compound 62 of (B)]
0.23 µM

Request: GI50, test system MDA-MB-435, entry CCOC(=O)CNc1ccc2c3c(n(CCCN)c(=O)c2c1)-c1ccccc1C3=O [Compound 40 of (B), Hydrochloride]
3.05 µM

Request: GI50, test system MDA-MB-435, entry O=C1c2ccccc2-c2c1c1ccc([N+](=O)[O-])cc1c(=O)n2CCCO [Compound 63 of (B)]
1.97 µM

Request: GI50, test system MDA-MB-435, entry Cl.NCCCn1c2c(c3ccc(NCC(=O)O)cc3c1=O)C(=O)c1ccccc1-2 [Compound 43 of (B), Hydrochloride]
1.14 µM
